molecular target: HLE (human leucocyte elastase) (Homo sapiens); assay: Measurement of HLE inhibition potency (kinact/Ki); assay type: biochemical; conditions: measured for non-radioactive iodine-labelled compounds and unlabelled chelate conjugates
Sequence (P08246 30-267): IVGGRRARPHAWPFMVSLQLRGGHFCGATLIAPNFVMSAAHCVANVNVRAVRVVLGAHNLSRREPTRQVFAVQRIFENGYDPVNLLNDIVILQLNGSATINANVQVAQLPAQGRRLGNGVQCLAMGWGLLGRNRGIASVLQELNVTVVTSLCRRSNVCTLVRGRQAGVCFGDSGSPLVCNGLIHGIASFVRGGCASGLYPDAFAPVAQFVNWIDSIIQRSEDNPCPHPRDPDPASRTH
Label FALSE if Potency (1/(M·s)), kinact/Ki falls below 8000 M⁻¹ s⁻¹; label TRUE in every other case.

Confirm if Potency (1/(M·s)), kinact/Ki reported for the molecule CCC[C@@H](NC(=O)N1C(=O)C(CC)(CC)[C@@H]1Oc1cccnc1)c1ccc(I)cc1 [Compound 28] is 8000 M⁻¹ s⁻¹ or above.
TRUE

Confirm if Potency (1/(M·s)), kinact/Ki reported for the molecule CCC1(CC)C(=O)N(C(=O)NCCC(=O)NCC(C)(CNC(C)(C)C(C)=NO)CNC(C)(C)C(C)=NO)C1Oc1ccc(C(=O)N2CCN(C)CC2)cc1 (racemic) [Compound 42] is 8000 M⁻¹ s⁻¹ or above.
FALSE

Confirm if Potency (1/(M·s)), kinact/Ki reported for the molecule CCC[C@@H](NC(=O)N1C(=O)C(CC)(CC)[C@@H]1Oc1ccc(C(=O)N2CCN(C)CC2)cc1)c1ccc(I)cc1 [Compound 24] is 8000 M⁻¹ s⁻¹ or above.
TRUE

Confirm if Potency (1/(M·s)), kinact/Ki reported for the molecule CCC1(CC)C(=O)N(C(=O)NCc2ccc(C(=O)NCC(C)(CNC(C)(C)C(C)=NO)CNC(C)(C)C(C)=NO)cc2)C1Oc1ccc(C(=O)N2CCN(C)CC2)cc1 (racemic) [Compound 38] is 8000 M⁻¹ s⁻¹ or above.
TRUE

Confirm if Potency (1/(M·s)), kinact/Ki reported for the molecule CCC1(CC)C(=O)N(C(=O)NCc2ccc(I)cc2)C1Oc1ccc(C(=O)N2CCN(C)CC2)cc1 (single isomer, unassigned) [Compound 4b] is 8000 M⁻¹ s⁻¹ or above.
FALSE

Confirm if Potency (1/(M·s)), kinact/Ki reported for the molecule CCC1(CC)C(=O)N(C(=O)NCCCCCC(=O)NCC(C)(CNC(C)(C)C(C)=NO)CNC(C)(C)C(C)=NO)C1Oc1ccc(C(=O)N2CCN(C)CC2)cc1 (racemic) [Compound 48] is 8000 M⁻¹ s⁻¹ or above.
FALSE

Confirm if Potency (1/(M·s)), kinact/Ki reported for the molecule CCC1(CC)C(=O)N(C(=O)NCCC(=O)NCCN(CCNC(C)(C)C(C)=NO)CCNC(C)(C)C(C)=NO)C1Oc1ccc(C(=O)N2CCN(C)CC2)cc1 (racemic) [Compound 51] is 8000 M⁻¹ s⁻¹ or above.
FALSE

Confirm if Potency (1/(M·s)), kinact/Ki reported for the molecule CCC1(CC)C(=O)N(C(=O)NCc2ccccc2)C1Oc1ccc(C(=O)NCC(C)(CNC(C)(C)C(C)=NO)CNC(C)(C)C(C)=NO)cc1 (racemic) [Compound 49] is 8000 M⁻¹ s⁻¹ or above.
TRUE

* * *

assay: In vivo stability of iodinated HLE inhibitors (thyroid uptake); set-up: species or system male Wistar rats; conditions: i.v. injection, 4 hours
value_type: % dose in Thyroid (% dose)
Please reply with the bare figure in % dose and do not write the unit itself.

Lab note: measured % dose in Thyroid of CCC1(CC)C(=O)N(C(=O)NCCc2ccc(O)c(I)c2)C1S(=O)(=O)CCOC (centres unmarked) was 0.3

Lab note: measured % dose in Thyroid of [123IH] [[^123I]-iodide, reference compound] was 6.8

Lab note: measured % dose in Thyroid of CCC1(CC)C(=O)N(C(=O)NCc2ccc(I)cc2)C1Oc1ccc(C(=O)N2CCN(C)CC2)cc1 (single isomer, unassigned) [Compound 4a] was 0.1

Lab note: measured % dose in Thyroid of `CCC[C@@H](NC(=O)N1C(=O)C(CC)(CC)[C@@H]1Oc1ccc(C(=O)N2CCN(C)CC2)cc1)c1ccc(I)cc1` was 0.2

Lab note: measured % dose in Thyroid of CCC1(CC)C(=O)N(C(=O)NCc2ccc(I)cc2)C1Oc1ccc(C(=O)N2CCN(C)CC2)cc1 (racemic) [Compound 4] was 0.1

* * *

test system: E. coli infected rats (experimental abscess); assay: In vivo biodistribution in rats bearing experimental abscesses, direct intravenous injection; design: species or system male Wistar rats; conditions: directly injected i.v., 24 hrs post injection, ratio of %/g infected area to blood
value_type: Infected/blood
Keep the answer to the number alone.

Lab note: measured Infected/blood of O=C([O-])CC(O)(CC(=O)[O-])C(=O)[O-].[67Ga+3] [^67Ga-citrate, ^67Ga citrate, reference compound] was 3.9

Lab note: measured Infected/blood of `CCC[C@@H](NC(=O)N1C(=O)C(CC)(CC)[C@@H]1Oc1ccc(C(=O)N2CCN(C)CC2)cc1)c1ccc(I)cc1` was 0.9

Lab note: measured Infected/blood of CCC1(CC)C(=O)N(C(=O)NCc2ccc(I)cc2)C1Oc1ccc(C(=O)N2CCN(C)CC2)cc1 (racemic) [Compound 4] was 0.51

Lab note: measured Infected/blood of CCC1(CC)C(=O)N(C(=O)NCc2ccc(I)cc2)C1Oc1ccc(C(=O)N2CCN(C)CC2)cc1 (single isomer, unassigned) [Compound 4a] was 0.53

Lab note: measured Infected/blood of `CCC[C@@H](NC(=O)N1C(=O)C(CC)(CC)[C@@H]1Oc1cccnc1)c1ccc(I)cc1` was 1.2

* * *

Give Relative conc. In infected area for every item shown.
system: E. coli infected rats (experimental abscess); assay: In vivo biodistribution in rats bearing experimental abscesses, direct intravenous injection; parameters: species or system male Wistar rats; conditions: directly injected i.v., 24 hrs post injection, % injected dose in a % body weight

Lab note: measured Relative conc. In infected area of CCC[C@@H](NC(=O)N1C(=O)C(CC)(CC)[C@@H]1Oc1cccnc1)c1ccc(I)cc1 [Compound 28] was 0.12

Lab note: measured Relative conc. In infected area of CCC[C@@H](NC(=O)N1C(=O)C(CC)(CC)[C@@H]1Oc1ccc(C(=O)N2CCN(C)CC2)cc1)c1ccc(I)cc1 [Compound 24] was 0.16

Lab note: measured Relative conc. In infected area of O=C([O-])CC(O)(CC(=O)[O-])C(=O)[O-].[67Ga+3] [^67Ga-citrate, ^67Ga citrate, reference compound] was 0.9

Lab note: measured Relative conc. In infected area of CCC1(CC)C(=O)N(C(=O)NCc2ccc(I)cc2)C1Oc1ccc(C(=O)N2CCN(C)CC2)cc1 (single isomer, unassigned) [Compound 4a] was 0.28

Lab note: measured Relative conc. In infected area of CCC1(CC)C(=O)N(C(=O)NCc2ccc(I)cc2)C1Oc1ccc(C(=O)N2CCN(C)CC2)cc1 (racemic) [Compound 4] was 0.12

* * *

tested on: mixed human red/white cells (granulocytes, monocytes + lymphocytes, erythrocytes); experiment: In vitro cell uptake in mixed human red/white cells; format: cell-based; settings: radiolabelled compound
Give % uptake in Eryth. (erythrocytes), WHITE AND RED CELLS for every item shown.
Kindly format the answer as number then unit.

Lab note: measured % uptake in Eryth. (erythrocytes), WHITE AND RED CELLS of CCC1(CC)C(=O)N(C(=O)NCCC(=O)NCCN(CCNC(C)(C)C(C)=NO)CCNC(C)(C)C(C)=NO)C1Oc1ccc(C(=O)N2CCN(C)CC2)cc1 (racemic) was 11.2%

Lab note: measured % uptake in Eryth. (erythrocytes), WHITE AND RED CELLS of CCC1(CC)C(=O)N(C(=O)NCc2ccc(I)cc2)C1Oc1ccc(C(=O)N2CCN(C)CC2)cc1 (single isomer, unassigned) [Compound 4a] was 8.4%

Lab note: measured % uptake in Eryth. (erythrocytes), WHITE AND RED CELLS of CCC1(CC)C(=O)N(C(=O)NCCC(=O)NCC(C)(CNC(C)(C)C(C)=NO)CNC(C)(C)C(C)=NO)C1Oc1ccc(C(=O)N2CCN(C)CC2)cc1 (racemic) was 18.9%

Lab note: measured % uptake in Eryth. (erythrocytes), WHITE AND RED CELLS of CCC1(CC)C(=O)N(C(=O)NCCCCCC(=O)NCC(C)(CNC(C)(C)C(C)=NO)CNC(C)(C)C(C)=NO)C1Oc1ccc(C(=O)N2CCN(C)CC2)cc1 (racemic) was 38.7%

Lab note: measured % uptake in Eryth. (erythrocytes), WHITE AND RED CELLS of CCC1(CC)C(=O)N(C(=O)NCc2ccc(I)cc2)C1Oc1ccc(C(=O)N2CCN(C)CC2)cc1 (single isomer, unassigned) [Compound 4b] was 1.6%

Lab note: measured % uptake in Eryth. (erythrocytes), WHITE AND RED CELLS of `CCC[C@@H](NC(=O)N1C(=O)C(CC)(CC)[C@@H]1Oc1cccnc1)c1ccc(I)cc1` was 17.5%

Lab note: measured % uptake in Eryth. (erythrocytes), WHITE AND RED CELLS of `CCC[C@@H](NC(=O)N1C(=O)C(CC)(CC)[C@@H]1Oc1ccc(C(=O)N2CCN(C)CC2)cc1)c1ccc(I)cc1` was 41.7%

Lab note: measured % uptake in Eryth. (erythrocytes), WHITE AND RED CELLS of CCC1(CC)C(=O)N(C(=O)NCc2ccccc2)C1Oc1ccc(C(=O)NCCN(CCNC(C)(C)C(C)=NO)CCNC(C)(C)C(C)=NO)cc1 (racemic) was 7.1%

Lab note: measured % uptake in Eryth. (erythrocytes), WHITE AND RED CELLS of CCC1(CC)C(=O)N(C(=O)NCc2ccc(I)cc2)C1Oc1ccc(C(=O)N2CCN(C)CC2)cc1 (racemic) [Compound 4] was 14.2%

Lab note: measured % uptake in Eryth. (erythrocytes), WHITE AND RED CELLS of CCC1(CC)C(=O)N(C(=O)NCc2ccc(C(=O)NCC(C)(CNC(C)(C)C(C)=NO)CNC(C)(C)C(C)=NO)cc2)C1Oc1ccc(C(=O)N2CCN(C)CC2)cc1 (racemic) was 28.4%

Lab note: measured % uptake in Eryth. (erythrocytes), WHITE AND RED CELLS of CCC1(CC)C(=O)N(C(=O)NCc2ccccc2)C1Oc1ccc(C(=O)NCC(C)(CNC(C)(C)C(C)=NO)CNC(C)(C)C(C)=NO)cc1 (racemic) was 18.0%

Lab note: measured % uptake in Eryth. (erythrocytes), WHITE AND RED CELLS of CCC1(CC)C(=O)N(C(=O)NCCc2ccc(O)c(I)c2)C1S(=O)(=O)CCOC (stereo not drawn) was 0.6%
